FYI, the data here is from patent US8404258B2.

- Test system: healthy volunteers (bent side of the forearm)
- Assay Method Text: 24 hour-occlusion patch test (Finn Chamber) of the original specimen
- Assay type: in vivo, human
- Condition Info: evaluation time 24 hrs; 46 persons; 0.03 ml original specimen
// reported Positive + (Weakly positive: erythema), number of subjects per item
The response must contain the number and no unit.

Consider the worked cases shown below.
Compound | Meas Value
CC(COC(=O)C(C)(C)C)OCC(C)OC(=O)C(C)(C)C (stereo not shown) [Example 2, Dipropyleneglycol dineopentanoate] | 0
CC(COC(=O)C(C)(C)C)OCC(C)OCC(C)OC(=O)C(C)(C)C (stereo not shown) [Example 1, Tripropyleneglycol dineopentanoate] | 0
CCCCCCCCC(=O)OCCCCCCC(C)C [compound 3, Isononyl nonanoate, reference compound] | 5

--- query ---
Consider CC(COC(=O)C(C)(C)C)OCC(C)OCC(C)OCC(C)OC(=O)C(C)(C)C (stereo not shown) [Example 3, Tetrapropyleneglycol dineopentanoate] . Its measured Positive + (Weakly positive: erythema), number of subjects is 0

----------
- Test system: healthy volunteers (bent side of the forearm)
- Assay Method Text: 24 hour-occlusion patch test (Finn Chamber) of the original specimen
- Assay type: in vivo, human
- Condition Info: evaluation time 24 hrs; 46 persons; 0.03 ml original specimen
Outcome Measure: Positive ++++ (Strongest positive: large blister), number of subjects
The response must contain the number and no unit.

Compound | Study System | Meas Value
CC(COC(=O)C(C)(C)C)OCC(C)OC(=O)C(C)(C)C (stereo not shown) [Example 2, Dipropyleneglycol dineopentanoate] | healthy volunteers (bent side of the forearm) | 0

The compound CC(COC(=O)C(C)(C)C)OCC(C)OCC(C)OC(=O)C(C)(C)C (stereo not shown) [Example 1, Tripropyleneglycol dineopentanoate] on healthy volunteers (bent side of the forearm): Positive ++++ (Strongest positive: large blister), number of subjects was 0

The compound CCCCCCCCC(=O)OCCCCCCC(C)C [compound 3, Isononyl nonanoate, reference compound] on healthy volunteers (bent side of the forearm): Positive ++++ (Strongest positive: large blister), number of subjects was 0

The compound CC(COC(=O)C(C)(C)C)OCC(C)OCC(C)OCC(C)OC(=O)C(C)(C)C (stereo not shown) [Example 3, Tetrapropyleneglycol dineopentanoate] on healthy volunteers (bent side of the forearm): Positive ++++ (Strongest positive: large blister), number of subjects was 0

----------
- System: healthy volunteers (bent side of the forearm)
- Assay Method Text: 24 hour-occlusion patch test (Finn Chamber) of the original specimen
- Format: in vivo, human
- Condition Info: evaluation time 48 hrs; 46 persons; 0.03 ml original specimen
// reported Positive + (Weakly positive: erythema), number of subjects per item
The response must contain the number and no unit.

Compound | Meas Value
CCCCCCCCC(=O)OCCCCCCC(C)C [compound 3, Isononyl nonanoate, reference compound] | 4
CC(COC(=O)C(C)(C)C)OCC(C)OC(=O)C(C)(C)C (stereo not shown) [Example 2, Dipropyleneglycol dineopentanoate] | 0
CC(COC(=O)C(C)(C)C)OCC(C)OCC(C)OCC(C)OC(=O)C(C)(C)C (stereo not shown) [Example 3, Tetrapropyleneglycol dineopentanoate] | 0

--- query ---
Consider CC(COC(=O)C(C)(C)C)OCC(C)OCC(C)OC(=O)C(C)(C)C (stereo not shown) [Example 1, Tripropyleneglycol dineopentanoate] . Its measured Positive + (Weakly positive: erythema), number of subjects is 0
